Test system: SR leukemia
Assay: NCI tumour cell line growth inhibition, 48 h
Exercise: state measured TGI for each of the molecules provided.

In: Item CC(C)OP(=O)(OC(C)C)C(C(F)(F)F)C(F)(F)F has what recorded TGI?
Out: > 100 µM

In: Further, for CCC(=O)C1=C(OC(C)=O)C2Cc3c(n(C)c4ccccc34)C(C1)N2C (stereo not given) ?
Out: > 100 µM

In: Further, for COC1=C(OC)C(=O)C(/C=C(\C)C(=O)O)=C(C)C1=O ?
Out: > 100 µM

In: Further, for Cc1cc(C)nc(NS(=O)(=O)c2ccc(Nc3c4ccccc4nc4c(C(=O)NCCN(C)C)ccc(Cl)c34)cc2)n1 ?
Out: 5.46 µM

In: Further, for COc1ccc2c(c1)C(=O)c1c-2n(CCCN=[N+]=[N-])c(=O)c2ccccc12 ?
Out: > 100 µM

---

Quick note: these are GI50 numbers for system: COLO 205 colon

In: Item COc1cccc(Nc2nc(NNC(=O)Cc3ccccc3)nc(NNC(=O)c3ccncc3)n2)c1 has what recorded GI50?
Out: > 100 µM

In: Further, for O=C(CCCn1c2c(sc3ncccc32)c(=O)n2nnc(-c3ccccc3)c12)NCCc1cnc[nH]1 ?
Out: 6.28 µM

In: Further, for COc1cc2c(cc1OCCCCNC(=O)c1cc3ccccc3[nH]1)N=CC1CCCN1C2=O (stereo not drawn) ?
Out: 16 µM

In: Further, for O=C1NC(=NCc2cccs2)SC1Cc1ccc2ncccc2c1 (stereo not drawn) ?
Out: 10.2 µM

In: Further, for O=S(=O)(NCCNc1nccc(-c2c(-c3cccc(O)c3)nc3sccn23)n1)c1ccc(F)cc1 ?
Out: 0.779 µM

In: Further, for COC(=O)[C@]12CC[C@@H](C)[C@H](C)[C@@H]1C1=CC[C@@H]3[C@@]4(C)C[C@@H](OC(=O)c5ccco5)[C@H](O)[C@@](C)(CO)[C@@H]4[C@H](O)C[C@@]3(C)[C@]1(C)CC2 ?
Out: 1.82 µM

In: Further, for Clc1ccc(-c2nc3c(-c4ccc(Cl)cc4)nc(-c4ccccc4)cn3c2-c2ccc(Cl)cc2)cc1 ?
Out: > 50 µM

In: Further, for N#Cc1ccc(Oc2nccc(-c3c(-c4ccc(F)cc4)ncn3C3CCNCC3)n2)cc1 ?
Out: > 25 µM

---

System: SNB-19 CNS
Experiment: NCI tumour cell line growth inhibition, 48 h; in the data active = GI50 below about 0.43 µM; inactive = the rest
The categories you may choose from are t for active, f for inactive

In: Just curious, what result did CSC1=Nc2c(c(C)c(-c3ccccc3)n2COC(CO)CO)C2=NC(=O)C(C)N12 (stereo not given) get here?
Out: f

In: Further, for COc1cc(/C=C/C(=O)C(=Cc2ccc(F)c(F)c2)C(=O)/C=C/c2ccc(O)c(OC)c2)ccc1O ?
Out: f

In: Further, for Clc1ccc(-c2nc3c(-c4ccc(Cl)cc4)nc(-c4ccccc4)cn3c2-c2ccc(Cl)cc2)cc1 ?
Out: f

In: Further, for C=C1CC[C@@H]2C(C)(C)[C@@H](O)CC[C@@]2(C)[C@@H]1COc1ccc2ccc(=O)oc2c1 ?
Out: f

In: Further, for CC/C(=N\Nc1nc2ccccc2n1C)c1ccccn1 ?
Out: t

---

Test system: RPMI-8226 leukemia
Assay: NCI tumour cell line growth inhibition, 48 h
Observable: TGI (µM)
Give the number; µM is assumed, so skip it.

In: Item C/C=C/C=N/N(c1nnc(-c2ccccc2)c(-c2ccccc2)n1)S(=O)(=O)c1ccc(C)cc1 has what recorded TGI?
Out: 36.6

In: Further, for CCCCc1ccc(Nc2nc3c(ncn3C3OC(COC(C)=O)C(OC(C)=O)C3OC(C)=O)c(=O)[nH]2)cc1 (stereo not given) ?
Out: 48.9

In: Further, for N/C(=N\O)c1ncc(-c2ccc(C(F)(F)F)cc2)c(NC2CCCCCC2)n1 ?
Out: 9.54

In: Further, for NC(=O)c1ccccc1NC(=O)C(=O)C(C(=O)c1ccc2ccccc2c1)C1OC(=O)c2ccccc21 (stereo not given) ?
Out: 48.1

---

Exercise: state measured TGI for each of the compounds provided.
Tested on: 786-0 renal
Experiment: NCI tumour cell line growth inhibition, 48 h

In: Item COC(=O)N1CC[C@@H]2CCC=C(c3cccc4c3OCO4)[C@@H]21 has what recorded TGI?
Out: > 100 µM

In: Further, for CC1=C(C(=O)Nc2cccc(C(F)(F)F)c2)C(c2ccc(O)cc2)C(C(=O)Nc2cccc(C(F)(F)F)c2)=C(C)N1 ?
Out: 35.8 µM

In: Further, for CN1CCc2c(sc3nc(Nc4ccccc4)n(N)c(=O)c23)C1 ?
Out: > 100 µM

In: Further, for CCN(CC)CC(O)c1ccc2ccc3ccccc3c2c1 (configuration not stated) ?
Out: 25.6 µM

In: Further, for CCOC(=O)C(Cc1ccc2c(c1)CCC2)(Cc1ccc2c(c1)CCC2)C(=O)OCC ?
Out: > 100 µM

In: Further, for Cc1ccc2nc3c(Cl)cc(=O)cc-3sc2c1 ?
Out: 35.7 µM

In: Further, for CCCOc1ccc(/C(Cl)=C(\C=O)c2ccc(OC)c(OC)c2)cc1OCCC ?
Out: > 100 µM

In: Further, for O=S(=O)(NCCNc1nccc(-c2c(-c3cccc(O)c3)nc3sccn23)n1)c1ccc(F)cc1 ?
Out: 41.8 µM

In: Further, for O=C1/C(=C/c2ccc(O)cc2)NC(=S)N1CN1CCCCC1 ?
Out: > 100 µM

In: Further, for N#CC12COC3(CCCCC3C1(C#N)C#N)OC2=N (configuration not stated) ?
Out: > 100 µM

In: Further, for COc1cc(Cn2c3c(c4c(CN(C)C)c(O)ccc42)C(=O)c2ccccc2C3=O)cc(OC)c1 ?
Out: 27.6 µM

In: Further, for Nc1nc(N)c2cc(CNc3ccc(Cl)c(Cl)c3)ccc2n1 ?
Out: 1.73 µM

In: Further, for CCOc1ccccc1NC(=O)C(=O)CC(=O)C1=C(C)Nc2ccccc2S1 ?
Out: > 100 µM

In: Further, for NNC(N)=Nc1cccc2ccccc12 ?
Out: > 100 µM

In: Further, for O=C(N/N=C(/COc1cccc(Cl)c1)N=Cc1ccncc1)c1ccncc1 ?
Out: > 100 µM

In: Further, for O=C1NC(=NCC(CO)c2ccccc2)S/C1=C\c1ccc2ncccc2c1 (configuration not stated) ?
Out: > 25 µM

In: Further, for CCN(CC)CCn1ncc2ccc3c(c(=O)c4cccnc4n3CCN(CC)CC)c21 ?
Out: 4.6 µM

In: Further, for COc1cc2c(cc1OCCCCNC(=O)c1cc3ccccc3[nH]1)N=CC1CCCN1C2=O (configuration not stated) ?
Out: > 100 µM

In: Further, for C=CCN1CCC(OC(=O)C(O)(/C=C\CC)C2CCCC2)CC1 (configuration not stated) ?
Out: > 100 µM

In: Further, for CN(C)CC(C(=O)c1ccccc1)c1ccccc1 (configuration not stated) ?
Out: 10.4 µM

In: Further, for C/C(CC(O)(C(F)(F)F)C(F)(F)F)=N\N ?
Out: > 10 µM

In: Further, for CC(C)=CC/C=C(/C)[C@H]1CC[C@]2(C)[C@@H]1CC[C@@H]1[C@@]3(C)CCC(=O)NC(C)(C)[C@@H]3CC[C@]12C ?
Out: 37.5 µM

---

System: SNB-75 CNS
Assay: NCI tumour cell line growth inhibition, 48 h
Label Met when TGI >= 20 µM; otherwise Not met.

In: Kindly determine if TGI recorded for C1CNCCN2CCCNCCN(C1)CC2 is above or exactly 20 µM.
Out: Met

In: Further, for COc1ccc2c(c1)C(=O)c1c-2n(CCCN=[N+]=[N-])c(=O)c2ccccc12 ?
Out: Met

In: Further, for C=CCC(C(=O)OC)C1(C(=O)OC)c2[nH]c3ccccc3c2CCN1Cc1ccccc1 (centres undefined) ?
Out: Met

In: Further, for Cc1ccc(SSCCCS(=O)O)cc1 ?
Out: Met

In: Further, for COc1ccc(-c2cc(-c3ccccc3)n(C3OC(COC(C)=O)C(OC(C)=O)C(OC(C)=O)C3OC(C)=O)c(=S)c2C#N)cc1 (centres undefined) ?
Out: Not met

In: Further, for COC(=O)[C@]12CC[C@@H](C)[C@H](C)[C@@H]1C1=CC[C@@H]3[C@@]4(C)C[C@@H](OC(=O)c5ccco5)[C@H](O)[C@@](C)(CO)[C@@H]4[C@H](O)C[C@@]3(C)[C@]1(C)CC2 ?
Out: Not met

In: Further, for C=CCn1c2ccccc2c2c(C)c3cnccc3c(C)c21 ?
Out: Met

In: Further, for Cc1c2c(c(C)c3c[n+](C)ccc13)Oc1ccccc1O2 ?
Out: Not met
